Reference source: patent US20230017045A1

tested on: test plant species; experiment: Post-emergent herbicidal activity test (greenhouse, foliar spray, visual growth reduction); assay type: in vivo; conditions: post-emergence, 336 h, ALOMY: blackgrass (Alopecurus myosuroides), 140 g ai/ha, 14 days after application, read-out: Visual Growth Reduction (%) 14 Days After Application, ALOMY
VALUE TYPE: pest or weed control at 140 g/ha

[in] Identify measured pest or weed control at 140 g/ha obtained with test plant species for O=C(O)c1nc(-c2ccc3occc3c2)c(F)cc1Cl [F198] .
[out] 0 to 29%

[in] Param request: pest or weed control at 140 g/ha | system test plant species | item COC(=O)c1nc(-c2ccc(C(F)(F)F)cc2Cl)cc(F)c1Cl [F109]
[out] 0 to 29%

[in] Lab note: record pest or weed control at 140 g/ha of COC(=O)c1nc(-c2ccc(C(F)(F)F)cc2OC)c(F)cc1Cl [F166] tested on test plant species.
[out] 0 to 29%

[in] Find pest or weed control at 140 g/ha for COC(=O)c1nc(-c2ccc(C(C)=O)cc2Cl)ccc1Cl [F26] on test plant species and write it down.
[out] 0 to 29%

[in] // fetch pest or weed control at 140 g/ha for COC(=O)c1nc(-c2cc3c(cc2Cl)OCO3)ccc1Cl [F144] ; system: test plant species
[out] 0 to 29%

[in] Look up and report measured pest or weed control at 140 g/ha (test plant species) for the following compound: COC(=O)c1nc(-c2ccc(Cl)c(F)c2Cl)ccc1Cl [F63]
[out] 0 to 29%

[in] Please report the measured pest or weed control at 140 g/ha for COC(=O)c1nc(-c2cc(C)c(C)cc2Cl)ccc1Cl [F49] tested on test plant species.
[out] 0 to 29%

[in] Would you please give the reported pest or weed control at 140 g/ha of COC(=O)c1nc(-c2ccc(C(F)(F)F)cc2Cl)cc(Cl)c1Cl [F108] with test plant species?
[out] 0 to 29%

[in] For test plant species, give pest or weed control at 140 g/ha of the listed compound: COC(=O)c1nc(-c2ccc(SC(F)(F)F)cc2)c(Cl)cc1Cl [F98]
[out] 0 to 29%

[in] Specify the recorded pest or weed control at 140 g/ha for COC(=O)c1nc(-c2ccc(Cl)c(F)c2F)ccc1Cl [F71] , system: test plant species.
[out] 0 to 29%

[in] Report value only: pest or weed control at 140 g/ha, test plant species, COC(=O)c1nc(-c2ccc(C(F)(F)F)c(C#N)c2Cl)ccc1Cl [F143]
[out] 0 to 29%

[in] Send back test plant species pest or weed control at 140 g/ha of COC(=O)c1nc(-c2cc3c(cc2Cl)OC(F)(F)O3)ccc1Cl [F124] only.
[out] 45 to 59%

[in] Find pest or weed control at 140 g/ha for COC(=O)c1nc(-c2ccc(C(F)(F)F)cc2F)c(F)cc1Cl [F158] on test plant species and write it down.
[out] 0 to 29%

[in] Look up test plant species data: pest or weed control at 140 g/ha of O=C(O)c1nc(-c2ccc(Cl)c3c2OC(F)(F)O3)ccc1Cl [F67] , then report it.
[out] 0 to 29%

[in] Param request: pest or weed control at 140 g/ha | system test plant species | item COC(=O)c1nc(-c2ccc(C(C)O)cc2Cl)ccc1Cl (centres unmarked) [F1]
[out] 0 to 29%

[in] For test plant species, give pest or weed control at 140 g/ha of the listed compound: COC(=O)c1nc(-c2ccc(C(F)(F)F)c(SC)c2Cl)ccc1Cl [F121]
[out] 0 to 29%

[in] For test plant species, give pest or weed control at 140 g/ha of the listed compound: C#Cc1cc(C(F)(F)F)ccc1-c1ccc(Cl)c(C(=O)OC)n1 [F16]
[out] 0 to 29%

[in] Report pest or weed control at 140 g/ha from test plant species testing of COC(=O)c1nc(-c2ncc(Cl)c(C(F)F)c2Cl)ccc1Cl [F184]
[out] 0 to 29%

[in] Find pest or weed control at 140 g/ha for COC(=O)c1nc(-c2ccc(SC(F)(F)F)cc2Cl)c(F)cc1Cl [F135] on test plant species and write it down.
[out] 30 to 44%

[in] Report value: pest or weed control at 140 g/ha, system: test plant species, compound: O=C(OCc1ccccc1)c1nc(-c2ccc(C(F)(F)F)cc2Cl)ccc1Cl [F44]
[out] 30 to 44%

[in] Output reported pest or weed control at 140 g/ha of the compound COC(=O)c1nc(-c2c(Cl)cc(C(F)(F)F)cc2SC)ccc1Cl [F122] on test plant species.
[out] 0 to 29%

[in] Look up and report pest or weed control at 140 g/ha, with test plant species as system, for COC(=O)c1nc(-c2ccc(Cl)cc2)c(N)cc1Cl [F72]
[out] 0 to 29%

[in] Give pest or weed control at 140 g/ha; test system test plant species; compound COC(=O)c1nc(-c2ccc(C(F)(F)F)cc2Cl)ccc1C [F53]
[out] 60 to 74%
